# credit: patent US20260055114A1

assayed.target: CDK12 (Homo sapiens, UniProt Q9NYV4)
Sequence (Q9NYV4 whole entry): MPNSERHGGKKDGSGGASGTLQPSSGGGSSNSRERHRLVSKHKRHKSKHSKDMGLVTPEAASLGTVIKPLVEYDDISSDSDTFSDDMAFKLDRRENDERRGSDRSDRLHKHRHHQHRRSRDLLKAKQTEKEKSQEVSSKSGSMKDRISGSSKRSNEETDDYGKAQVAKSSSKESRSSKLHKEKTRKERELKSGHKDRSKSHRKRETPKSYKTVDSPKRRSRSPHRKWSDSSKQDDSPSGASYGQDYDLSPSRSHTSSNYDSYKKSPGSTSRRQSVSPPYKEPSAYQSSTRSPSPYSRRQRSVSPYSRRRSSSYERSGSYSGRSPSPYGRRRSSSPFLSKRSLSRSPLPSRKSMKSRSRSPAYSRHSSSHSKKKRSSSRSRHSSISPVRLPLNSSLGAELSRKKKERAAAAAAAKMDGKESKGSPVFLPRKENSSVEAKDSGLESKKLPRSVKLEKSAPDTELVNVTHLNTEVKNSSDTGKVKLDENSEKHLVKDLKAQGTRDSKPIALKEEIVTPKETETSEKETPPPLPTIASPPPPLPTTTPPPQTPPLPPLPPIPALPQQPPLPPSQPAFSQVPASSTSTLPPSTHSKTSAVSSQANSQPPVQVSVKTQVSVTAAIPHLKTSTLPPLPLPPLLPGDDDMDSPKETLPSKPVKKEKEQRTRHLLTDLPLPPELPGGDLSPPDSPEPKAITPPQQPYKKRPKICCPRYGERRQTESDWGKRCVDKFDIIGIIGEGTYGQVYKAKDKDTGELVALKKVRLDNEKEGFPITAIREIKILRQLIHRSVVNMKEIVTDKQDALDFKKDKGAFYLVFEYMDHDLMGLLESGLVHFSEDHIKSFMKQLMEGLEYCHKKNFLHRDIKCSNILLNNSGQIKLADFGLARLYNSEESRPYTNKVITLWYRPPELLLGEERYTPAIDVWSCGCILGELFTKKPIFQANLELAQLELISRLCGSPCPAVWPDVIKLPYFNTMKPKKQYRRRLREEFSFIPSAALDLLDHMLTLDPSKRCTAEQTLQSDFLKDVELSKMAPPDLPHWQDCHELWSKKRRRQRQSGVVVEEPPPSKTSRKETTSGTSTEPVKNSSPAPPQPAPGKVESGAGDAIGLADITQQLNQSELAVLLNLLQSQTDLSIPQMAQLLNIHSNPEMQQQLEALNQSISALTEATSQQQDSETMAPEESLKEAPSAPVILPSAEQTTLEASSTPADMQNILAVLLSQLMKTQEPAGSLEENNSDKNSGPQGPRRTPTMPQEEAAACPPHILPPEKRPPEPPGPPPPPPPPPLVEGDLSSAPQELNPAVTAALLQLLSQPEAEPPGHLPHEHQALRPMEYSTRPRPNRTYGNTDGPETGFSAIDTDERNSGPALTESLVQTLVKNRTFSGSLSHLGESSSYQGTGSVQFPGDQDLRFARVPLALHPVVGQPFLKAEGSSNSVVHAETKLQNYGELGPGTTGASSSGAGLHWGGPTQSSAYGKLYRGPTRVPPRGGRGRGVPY
Sequence (O75909 whole entry partner): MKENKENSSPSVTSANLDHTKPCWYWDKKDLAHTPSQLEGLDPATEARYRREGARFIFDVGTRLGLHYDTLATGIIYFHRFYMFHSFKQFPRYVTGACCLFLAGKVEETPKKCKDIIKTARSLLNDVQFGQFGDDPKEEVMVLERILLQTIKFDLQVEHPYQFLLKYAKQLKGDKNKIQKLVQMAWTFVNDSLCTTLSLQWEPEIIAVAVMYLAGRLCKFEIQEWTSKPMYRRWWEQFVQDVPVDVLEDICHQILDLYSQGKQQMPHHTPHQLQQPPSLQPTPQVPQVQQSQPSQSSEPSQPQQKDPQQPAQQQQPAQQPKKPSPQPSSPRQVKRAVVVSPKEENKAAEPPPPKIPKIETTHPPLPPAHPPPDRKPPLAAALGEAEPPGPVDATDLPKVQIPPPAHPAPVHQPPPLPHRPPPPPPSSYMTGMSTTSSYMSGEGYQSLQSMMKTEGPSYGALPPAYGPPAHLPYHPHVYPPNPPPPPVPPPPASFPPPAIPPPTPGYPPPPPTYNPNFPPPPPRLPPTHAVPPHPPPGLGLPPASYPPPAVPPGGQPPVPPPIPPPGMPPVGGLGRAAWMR
experimental.protocol: Inhibition of cyclin-dependent kinase 12 (% enzyme activity at 1 uM and IC50)
Format: biochemical
measurement.kind: log10 of IC50 (log10 of the value in nM)
// units: nM (pre-log); metric: IC50; scale: log10

> print(dat)
                         chemical.structure  measured
1  Cc1noc(C)c1-c1cnc2c(NCc3nc4cc(Cl)c(Cl)cc4[nH]3)cc(N3CCN(C)CC3)nn12      3.10
2  CN1CCN(c2cc(NCc3nc4cccc(Cl)c4[nH]3)c3ncc(-c4cnn(C5CC5)c4)n3n2)CC1      3.32
3  Fc1ccc2[nH]c(CNc3cc(N4CCOCC4)nn4c(-c5cnn(C(F)F)c5)cnc34)nc2c1F      2.45
4  Cc1noc(C)c1-c1cnc2c(NCc3nc4cc(Cl)c(Cl)cc4[nH]3)cc(N3CCOCC3)nn12      3.48
5  CN1CCN(c2cc(NCc3nc4cc(Cl)c(Cl)cc4[nH]3)c3ncc(-c4cnn(C(F)F)c4)n3n2)CC1      3.00
6  CC1(C)CN(c2cc(NCc3nc4cc(Cl)c(Cl)cc4[nH]3)c3ncc(-c4cnn(C(F)F)c4)n3n2)CCN1      1.26
7  Cn1cc(-c2cnc3c(NCc4nc5c(F)c(F)ccc5[nH]4)cc(N4CCOCC4)nn23)cn1      3.48

Now consider a different compound.
Query CN(C)c1cc(NCc2nc3cccc(Cl)c3[nH]2)c2ncc(-c3ccsc3)n2n1 yields log10 of IC50 of 3.00
